- METHOD DESCRIPTION: TRM-201-PK-102 single-dose four-period crossover pharmacokinetic study, fasted healthy subjects
- Assay type: in vivo, human
- RUN CONDITIONS: human, plasma, oral, 25 mg, 102 study, Black or African-American subjects, read-out: arithmetic mean AUC0-∞
OBSERVED PROPERTY: AUC(0-inf) (ng·h/mL)
Numbers only, in ng·h/mL.

Q: Given the compound CS(=O)(=O)c1ccc(C2=C(c3ccccc3)C(=O)OC2)cc1 [TRM-201] , what is its reported AUC(0-inf)?
Ans: 3990

###

- METHOD DESCRIPTION: TRM-201-PK-102 single-dose four-period crossover pharmacokinetic study, fasted healthy subjects
- Type: in vivo, human
- RUN CONDITIONS: human, plasma, oral, 20 mg, 102 study, body weight 47-70 kg, read-out: geometric mean AUC0-∞
OBSERVED PROPERTY: AUC(0-inf) (ng·h/mL)
One number for each entry, in ng·h/mL.

Q: Looking for the measured AUC(0-inf) of CS(=O)(=O)c1ccc(C2=C(c3ccccc3)C(=O)OC2)cc1 , can you help?
Ans: 3340
